From: ChEMBL document CHEMBL1961873

Kindly state inhibition for each of the entries shown.
Study Target: MAP kinase-activated protein kinase 2 (Homo sapiens) (UniProt P49137);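 note: values are mean inhibition from the GSK PKIS screen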
Sequence (P49137 whole entry, looked up): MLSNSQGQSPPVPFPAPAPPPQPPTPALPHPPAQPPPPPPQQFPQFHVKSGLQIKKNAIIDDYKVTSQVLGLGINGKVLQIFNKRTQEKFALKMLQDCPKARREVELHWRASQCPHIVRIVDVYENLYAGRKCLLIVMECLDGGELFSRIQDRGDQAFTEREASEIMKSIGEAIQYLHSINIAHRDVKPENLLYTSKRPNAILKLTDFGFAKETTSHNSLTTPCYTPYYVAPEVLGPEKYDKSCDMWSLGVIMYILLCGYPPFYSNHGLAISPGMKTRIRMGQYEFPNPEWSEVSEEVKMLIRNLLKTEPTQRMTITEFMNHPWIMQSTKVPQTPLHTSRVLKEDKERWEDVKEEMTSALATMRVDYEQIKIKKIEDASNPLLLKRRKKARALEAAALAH
Experimental Conditions: at 1 µM
Number only, in %; omit the unit.

Given Cc1cc(O)cc(C)c1/C=C/c1cncc(C(=O)N(C)C)c1 , state its recorded inhibition. 0.82

One more compound: O=C1Nc2ccc(-c3cccnc3)cc2C1=Cc1cc(Br)c(O)c(Br)c1 1.49

Now the compound COc1cc(/C=N/Nc2ncnc3c2cnn3C(C)C)ccc1O 0.4

Next record, please: COc1cc2ncnc(Nc3ccc(C)c(O)c3)c2cc1OC 3.42

Please do the same for Cc1cc(Cl)cc2c1NC(=O)C2=NNc1ccc(S(N)(=O)=O)cc1 as well. 1.44

// same read-out, input: Oc1cccc(-c2nc(-c3ccccc3)[nH]c2-c2ccncc2)c1 1.79
